tested on: HCV replicon cells; experiment: HCV replicon FRET / luciferase assay (96-well plates); type: cell-based; settings: Hepatitis C virus, Table 1b; HCV replicon; read-out: EC50
property: EC50

# example entries with known answers
CNC(=O)c1c(-c2ccc(F)cc2)oc2ccc(-c3cc(C(=O)NC4(c5noc(C)n5)CC4)c(OC)cc3Cl)cc12 : < 250 nM
CNC(=O)c1c(-c2ccc(F)cc2)oc2ccc(-c3ccc(-c4cccnc4C)c(C(=O)NCC(C)C)c3)cc12 : < 250 nM
CNC(=O)c1c(-c2ccc(F)cc2)oc2ccc(-c3cc(C(=O)NCC(C)C)ccc3OCCc3ccccn3)cc12 : < 250 nM
CNC(=O)c1c(-c2ccc(F)cc2)oc2cc(N(CCO)S(C)(=O)=O)c(-c3cccc(C(=O)NC4(c5ccc(F)cc5)CC4)c3)cc12 : < 250 nM
CNC(=O)c1c(-c2ccc(F)cc2)oc2ccc(-c3cc(OCC4CCC4)cc(C(=O)NCC(C)C)c3)cc12 : 1000 to 10000 nM

List EC50 for every entry below, keeping the order given.
1. CNC(=O)c1c(-c2ccc(F)cc2)oc2ccc(-c3cc(C(=O)NC4(c5nnc(C6CC6)[nH]5)CC4)ccc3C)cc12
2. CNC(=O)c1c(-c2ccc(F)cc2)oc2ccc(-c3cc(F)cc(C(=O)NC4(c5ccccn5)CC4)c3)cc12
3. CNC(=O)c1c(-c2ccc(F)cc2)oc2ccc(-c3ccc(-c4ccc(C(N)=O)cc4)c(C(=O)NCC(C)C)c3)cc12

Data returned:
1. < 250 nM
2. < 250 nM
3. > 10000 nM

====

biological target: HCV NS5B RdRp genotype 1b (Hepatitis C virus genotype 1b, UniProt Q9WMX2); construct: The protein was expressed with an 18 amino acid C-terminal truncation to enhance the solubility; made in house; host or cells: E. coli BL21(DE3), pET21a vector; experiment: Standard HCV NS5B RdRp enzyme assay; assay type: biochemical
Sequence (Q9WMX2 2420-2992): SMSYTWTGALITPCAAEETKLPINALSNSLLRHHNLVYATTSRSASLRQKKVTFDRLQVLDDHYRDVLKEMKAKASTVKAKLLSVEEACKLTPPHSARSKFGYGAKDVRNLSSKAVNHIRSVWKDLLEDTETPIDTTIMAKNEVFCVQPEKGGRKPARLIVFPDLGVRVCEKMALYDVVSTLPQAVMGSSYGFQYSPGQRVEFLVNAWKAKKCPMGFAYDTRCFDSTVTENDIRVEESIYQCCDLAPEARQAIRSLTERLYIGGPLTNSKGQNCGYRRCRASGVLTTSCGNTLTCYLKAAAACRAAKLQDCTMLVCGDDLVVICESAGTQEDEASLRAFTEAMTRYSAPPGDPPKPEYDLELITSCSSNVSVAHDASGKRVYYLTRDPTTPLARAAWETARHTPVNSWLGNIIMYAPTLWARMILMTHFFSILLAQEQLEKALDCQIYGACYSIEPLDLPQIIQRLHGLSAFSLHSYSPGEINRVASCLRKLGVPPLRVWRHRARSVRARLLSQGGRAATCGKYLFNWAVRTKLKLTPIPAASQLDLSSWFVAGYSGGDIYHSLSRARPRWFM
pIC50: −log10 of the molar value.
Give measured pIC50 for each item. Keep answers brief.

CNC(=O)c1c(-c2ccc(F)cc2)oc2ccc(-c3cccc(C(=O)NC4CN5CCC4CC5)c3)cc12 (centres unmarked) : 5.00 to 6.00

# ---- query compound ----
Data request: What value of pIC50 has been reported for the following compound? CNC(=O)c1c(-c2ccc(F)cc2)oc2ccc(-c3cccc(C(=O)N4C5CCC4CN(C)C5)c3)cc12
Data returned: 5.00 to 6.00

====

Give measured IC50 for each item. Keep answers brief.
target: HCV NS5B RdRp genotype 1b (Hepatitis C virus genotype 1b); construct: The protein was expressed with an 18 amino acid C-terminal truncation to enhance the solubility; made in house; host or cells: E. coli BL21(DE3), pET21a vector; experiment: Standard HCV NS5B RdRp enzyme assay; assay type: biochemical; conditions: Table 1b; HCV NS5B RdRp genotype 1b; read-out: IC50

# example entries with known answers
CNC(=O)c1c(-c2ccc(F)cc2)oc2ccc(-c3cc(C(=O)NC4(c5ccccn5)CC4)c(-c4ccccc4Cl)cc3C)cc12 : < 250 nM
CNC(=O)c1c(-c2ccccc2)oc2ccc(-c3cc(C(=O)NC4(c5nnc(-c6ccccc6)[nH]5)CC4)ccc3C)cc12 : < 250 nM
CNC(=O)c1c(-c2ccc(F)cc2)oc2cc([N+](=O)[O-])c(-c3cc(C(=O)NC4(c5ccccc5)CC4)ccc3OC)cc12 : < 250 nM
CNC(=O)c1c(-c2ccc(F)cc2)oc2ccc(-c3cccc(C(=O)NC4(c5ccc(Cl)cc5)CC4)c3)cc12 : < 250 nM
CNC(=O)c1c(-c2ccc(F)cc2)oc2cc(N(CCO)S(C)(=O)=O)c(-c3cccc(C(=O)NC4(c5ccccn5)CC4)c3)cc12 : < 250 nM
CNC(=O)c1c(-c2ccc(F)cc2)oc2ccc(-c3cccc(-c4nc(-c5ccccc5)c[nH]4)c3)cc12 : 250 to 1000 nM

List IC50 for every entry below, keeping the order given.
1. CNC(=O)c1c(-c2ccc(F)cc2)oc2ccc(-c3ccc(-c4cncc(OC)c4)c(C(=O)NCC(C)C)c3)cc12
2. CNC(=O)c1c(-c2ccc(F)cc2)oc2ccc(-c3cc(C(=O)NCC(C)C)ccc3OCCC3CNCCO3)cc12 (stereo not shown) [drawing 415]
3. CNC(=O)c1c(-c2ccc(F)cc2)oc2ccc(-c3cc(C(=O)NCC(C)C)ccc3OCc3c[nH]cn3)cc12

Data returned:
1. 250 to 1000 nM
2. < 250 nM
3. < 250 nM

List IC50 for every entry below, keeping the order given.
1. CNC(=O)c1c(-c2ccc(F)cc2)oc2ccc(-c3cc(C(=O)NC4(c5cccnc5)CC4)ccc3C)cc12
2. CNC(=O)c1c(-c2ccc(F)cc2)oc2ccc(-c3cc(C(=O)NCC(C)C)ccc3OCCC(N)=O)cc12
3. CNC(=O)c1c(-c2ccc(F)cc2)oc2ccc(-c3cc(O)cc(C(=O)NCC(C)C)c3)cc12
4. CNC(=O)c1c(-c2ccc(F)cc2)oc2cc(NS(C)(=O)=O)c(-c3cc(C(=O)NC4(c5ccccc5)CC4)ccc3F)cc12
5. C#CCNC(=O)C1(NC(=O)c2ccc(C)c(-c3ccc4oc(-c5ccc(F)cc5)c(C(=O)NC)c4c3)c2)CC1
6. CNC(=O)c1c(-c2ccc(F)cc2)oc2ccc(-c3cc(F)cc(C(=O)NC4(c5ccccn5)CC4)c3)cc12

Data returned:
1: < 20 nM; 2: > 10000 nM; 3: < 250 nM; 4: < 250 nM; 5: < 250 nM; 6: < 250 nM

Data request: What value of IC50 has been reported for the following compound? CNC(=O)c1c(-c2ccc(F)cc2)oc2ccc(-c3cc(C(=O)NC4(c5ccccn5)CC4)c(F)cc3O)cc12
Data returned: < 250 nM

====

biological target: HCV NS5B RdRp genotype 1b (Hepatitis C virus genotype 1b, UniProt Q9WMX2); construct: The protein was expressed with an 18 amino acid C-terminal truncation to enhance the solubility; made in house; host or cells: E. coli BL21(DE3), pET21a vector; assay: Standard HCV NS5B RdRp enzyme assay; format: biochemical; conditions: Table 1a; HCV NS5B RdRp genotype 1b; read-out: IC50
Give measured IC50 for each item. Keep answers brief.

CNC(=O)c1c(-c2ccc(F)cc2)oc2ccc(-c3cccc(C(=O)N4CC(C)OC(C)C4)c3)cc12 (centres unmarked) : 1000 to 10000 nM
CNC(=O)c1c(-c2ccc(F)cc2)oc2ccc(-c3cccc(C(=O)Nc4nc(C)cs4)c3)cc12 : < 250 nM
CCNC(=O)C(C)(C)NC(=O)c1cccc(-c2ccc3oc(-c4ccc(F)cc4)c(C(=O)NC)c3c2)c1 : 250 to 1000 nM
CCC(C)NC(=O)c1cccc(-c2ccc3oc(-c4ccc(F)cc4)c(C(=O)NC)c3c2)c1 (centres unmarked) : < 250 nM
CCCCNC(=O)c1cccc(-c2ccc3oc(-c4ccc(F)cc4)c(C(=O)NC)c3c2)c1 : < 250 nM
CNC(=O)c1c(-c2ccc(F)cc2)oc2ccc(-c3cc(C(=O)NC4(c5ccccc5)CC4)ccc3F)cc12 [drawing 100] : < 250 nM

List IC50 for every entry below, keeping the order given.
1. CNC(=O)c1c(-c2ccc(F)cc2)oc2ccc(-c3ccc(F)c(C(=O)O)c3)cc12
2. CNC(=O)c1c(-c2ccc(F)cc2)oc2ccc(-c3cccc(C(=O)OC)c3)cc12

Data returned:
1: 1000 to 10000 nM; 2: > 10000 nM

====

Give measured IC50 for each item. Keep answers brief.
biological target: HCV NS5B RdRp genotype 1b (Hepatitis C virus genotype 1b); construct: The protein was expressed with an 18 amino acid C-terminal truncation to enhance the solubility; made in house; host or cells: E. coli BL21(DE3), pET21a vector; experiment: Standard HCV NS5B RdRp enzyme assay; assay type: biochemical; conditions: Table 1b; HCV NS5B RdRp genotype 1b; read-out: IC50

# example entries with known answers
CNC(=O)c1c(-c2ccc(F)cc2)oc2ccc(-c3cc(OCCC4CCCNC4)cc(C(=O)NCC(C)C)c3)cc12 (centres unmarked) : < 250 nM
CNC(=O)c1c(-c2ccc(F)cc2)oc2ccc(-c3cc(C(=O)NC4(c5ccc(F)cc5)CC4)ccc3C)cc12 : < 250 nM
CNC(=O)c1c(-c2ccc(F)cc2)oc2ccc(-c3ccc(-c4cc(F)cc(F)c4)c(C(=O)NCC(C)C)c3)cc12 : 250 to 1000 nM
CNC(=O)c1c(-c2ccc(F)cc2)oc2ccc(-c3cc(C(=O)NC4(c5ccn(C)n5)CC4)ccc3C)cc12 : < 20 nM

List IC50 for every entry below, keeping the order given.
1. CNC(=O)c1c(-c2ccc(F)cc2)oc2ccc(-c3cc(C(=O)NCC(C)C)ccc3OCC(C)O)cc12 (centres unmarked)
2. CCCOc1cc(C(=O)NCC(C)C)cc(-c2ccc3oc(-c4ccc(F)cc4)c(C(=O)NC)c3c2)c1
3. CNC(=O)c1c(-c2ccc(F)cc2)oc2ccc(-c3cc(OC)cc(C(=O)NCC(C)C)c3)cc12
4. CNC(=O)c1c(-c2ccc(F)cc2)oc2ccc(-c3cc(OCCOC)cc(C(=O)NCC(C)C)c3)cc12

Data returned:
1: < 250 nM; 2: > 10000 nM; 3: 250 to 1000 nM; 4: > 500 nM
